# Tested on: SF-539
# Protocol Text: NCI tumour cell line growth inhibition, 48 h
The source made the active and inactive calls. Rule as the data show it: active = GI50 up to about 1.1 µM and inactive = higher.
Outcomes you can answer with include only these: TRUE = active, FALSE = inactive

N#Cc1ccc([N+](=O)[O-])cc1NC(N)=S    FALSE
CC(=O)C1=C(C)N(c2ccc(C)cc2)C2(O)C3=C(C(=O)c4ccccc4C3=O)C(O)=CC12Cl (centres undefined)    FALSE
COc1cccc(-c2ccc3c4c2O[C@H]2C(=O)CC[C@@]5(O)[C@@H](C3)N(CC3CC3)CC[C@]425)c1    FALSE
O=C1CC[C@@]2(O)[C@H]3Cc4ccc(-c5cccc(O)c5)c5c4[C@@]2(CCN3CC2CC2)[C@H]1O5    FALSE

INPUT: Lab log entry: COCOc1ccc(OC)cc1 — outcome as called in the assay?
OUTPUT: FALSE

INPUT: Hi team, can someone confirm the assay call for CN(C)c1ccc(C=C2C(=O)OC(C)(C)OC2=O)cc1Br ?
OUTPUT: FALSE

INPUT: Could you check what this test reported for COC(=O)C1=C(C(=O)OC)C2(/N=C(\Nc3ccccc3)c3ccccc3)N(c3ccc(OC)cc3)CC(c3ccccc3)N2O1 (centres undefined) ?
OUTPUT: FALSE

INPUT: Lab log entry: CC(=O)NC1C(OCc2ccccc2)OC(CO)C(O)C1OC(C)C(=O)NC(C(=O)N[C@@H](CCC(=O)NCCNCCNc1c2ccccc2nc2cccc([N+](=O)[O-])c12)C(N)=O)C(C)C (some centres undefined) — outcome as called in the assay?
OUTPUT: FALSE

INPUT: Returns: the outcome recorded for COc1ccc(C2C(Cl)C(=O)N2NC(=O)c2ccc(NC(C)=O)cc2)cc1OC (centres undefined) in this assay.
OUTPUT: FALSE

INPUT: Test call, this molecule: CC(C)[C@H]1NC(=O)[C@H]2N=C(S[C@H]2C)[C@@H]2CCCN2C(=O)[C@H](Cc2ccccc2)NC(=O)[C@@H]2CSC(=N2)[C@@H](Cc2ccccc2)NC(=O)[C@@H]2CSC1=N2
OUTPUT: FALSE

INPUT: Hi, do you know how N#CCN1CCOCCOCCN(CC#N)CCOCCOCC1 came out in this test?
OUTPUT: FALSE

INPUT: Assay outcome for C/C(=N/NC(=S)Nc1ccccc1Cl)c1ccccn1 : what was it?
OUTPUT: TRUE

INPUT: Record lookup: outcome of this test for COc1cc2c(cc1OC)c1c(OC)c(OC)cc3c1c1c2sc(=S)n1CC3 ?
OUTPUT: FALSE

INPUT: Short answer needed: outcome of this test for CC(C)=CCC/C(C)=C/C=C/C(C)=C/C=C/C(C)=C/C=C/C=C(C)/C=C/C=C(C)/C=C/[C@H]1C(C(C)(C)O)CC[C@]1(C)O (some centres undefined) ?
OUTPUT: FALSE

INPUT: Returns: the outcome recorded for CN(C)CC1CN=C(N)O1 (centres undefined) in this assay.
OUTPUT: FALSE

INPUT: Per the assay record, what outcome was assigned to c1ccc(C2N=C(c3ccccn3)C(c3ccccn3)=NC2c2ccccc2)cc1 (centres undefined) ?
OUTPUT: FALSE

INPUT: Given CC1(C)OCC=CCO1 , state the outcome it received in this test.
OUTPUT: FALSE

INPUT: Name the outcome recorded for c1ccc(-c2csc3c2-n2cccc2C3N2CCCC2)cc1 (centres undefined) in the assay.
OUTPUT: FALSE

INPUT: Write down the call the test reported for this molecule. Item: Cc1cccc(NC(=O)C(=O)C(C(=O)c2ccccc2F)C2OC(=O)c3ccccc32)c1Cl (centres undefined)
OUTPUT: FALSE

* * *

# Test system: SK-OV-3
# Protocol Text: NCI tumour cell line growth inhibition, 48 h
The source made the active and inactive calls. Cut-off read from the data, not from the text of the source: active = GI50 up to about 1.1 µM and inactive = higher.
Your reply should match one of these outcome classes. 1 (active), 0 (inactive)

INPUT: Test call, this compound: CCOC(=O)c1c(N2CCCC2)[nH]c(=O)c(C(c2c(O)c(C(=O)OCC)c(N3CCCC3)[nH]c2=O)C(C)C)c1O
OUTPUT: 0

INPUT: For this compound, state the assay outcome: CC(=O)O[C@H]1C(=O)[C@@]2(C)[C@H]([C@H](OC(=O)c3ccccc3)[C@]3(O)C[C@H](OC(=O)[C@H](O)[C@@H](NC(=O)c4cccc(N=[N+]=[N-])c4)c4ccccc4)C(C)=C1C3(C)C)[C@]1(OC(C)=O)CO[C@@H]1C[C@@H]2O
OUTPUT: 1

INPUT: Hey, what did the test say about CC(C)N1CN(C(C(=O)N[C@@H]2C(=O)N3C2SC(C)(C)C3C(=O)O)c2ccccc2)CSC1=S (stereo partly drawn) ?
OUTPUT: 0

INPUT: GET /call?item= COC(=O)C1=C(C(=O)OC)C2(/N=C(\Nc3ccccc3)c3ccccc3)N(c3ccc(OC)cc3)CC(c3ccccc3)N2O1 (stereo not drawn) returns the recorded outcome of this test.
OUTPUT: 0

INPUT: Kindly provide the recorded test outcome for the following compound: CC(C)n1c(=O)n(-c2ccccc2)n(C(C)(C)C)c1=O
OUTPUT: 0

* * *

# Test system: COLO 205
# Protocol Text: NCI tumour cell line growth inhibition, 48 h
The source made the active and inactive calls. Rule as the data show it: active = GI50 up to about 1.1 µM and inactive = higher.
Answer with one of the outcomes given here: Yes (active), No (inactive)

Sample answers from the record:
O=c1oc2ccc([N+](=O)[O-])cc2cc1-c1csc(-c2ccccc2)n1    No
COC(=O)CCC(=O)CC(=O)C1=NS(=O)(=O)c2nc(S(N)(=O)=O)c(Cl)cc2N1    No
COc1cc2c(cc1OC)c1c(OC)c(OC)cc3c1c1c2sc(=S)n1CC3    No

INPUT: Fill in: this test's call for CN(CCCN=C=S)CCCN1c2ccccc2CCc2ccccc21 is ___
OUTPUT: No

INPUT: What did the test return for CN1C(=O)C2(C)SC1(c1ccccc1)C1C(=O)N(c3ccccc3)C(=O)C12 (stereo not drawn) ?
OUTPUT: No

INPUT: For O=C(/C=C/c1ccc(O)c(O)c1)OCCOC(=O)/C=C/c1ccc(O)c(O)c1 , which call appears in the assay record?
OUTPUT: No

INPUT: Lab log entry: C/C(=C\CNc1nc(Cl)nc2[nH]cnc12)CO — outcome as called in the assay?
OUTPUT: No

* * *

# System: NCI-H522
# Protocol Text: NCI tumour cell line growth inhibition, 48 h
Active and inactive are the calls of the source. Cut-off read from the data, not from the text of the source: active = GI50 up to about 1.1 µM and inactive = higher.
Returns: one label drawn from class 1 for active, class 0 for inactive

CC(C)(C)c1ccc(O)c(CN(Cc2c(O)ccc3ccccc23)C2CCCCC2)c1    class 0
Cc1nc(N)sc1C(=O)Nc1nc[nH]n1    class 0
c1ccc([B-]2(c3ccccc3)OCCc3cccc[n+]32)cc1    class 0
C=CC/N=C1/N=C(CC(=O)OCC)CS1    class 0
N#CCCN(CCC#N)c1ccc(C(=N/c2ccc(Cl)cc2)/N=N/c2ccccc2)cc1    class 0
CCOc1cccc2[s+]snc12    class 0
Cc1ccc(S(=O)OCc2c(C)c(C)c(COS(=O)c3ccc(C)cc3)c(C)c2C)cc1 (stereo not drawn)    class 0
CC(=O)CC12NC(=O)N(C)N=C1N(C)C(=O)N(C)C2=O (stereo not drawn)    class 0

Now examine the next entry.
INPUT: Returns: the outcome recorded for Cc1ccc(NC(=O)c2cc3ccccc3c(/N=N/c3cc(S(=O)(=O)O)ccc3O)c2O)c(C)c1 in this assay.
OUTPUT: class 0

* * *

Reported GI50 by item:
# System: IGROV-1
# Protocol Text: NCI tumour cell line growth inhibition, 48 h
Active and inactive are the calls of the source. Cut-off read from the data, not from the text of the source: active = GI50 up to about 1.1 µM and inactive = higher.

Worked set:
COc1ccc(NC(C)=O)cc1N1C(=O)/C(=C\c2cc(OC)c(OC)c(OC)c2)S(=O)(=O)C1c1ccccc1 (configuration not stated)    98.4 µM (inactive)
Cc1ccc2c(CC(=O)O)cc(=O)oc2c1    > 100 µM (inactive)
CC(C)n1c(=O)n(-c2ccccc2)n(C(C)(C)C)c1=O    > 100 µM (inactive)
COc1cc2c3cc1Oc1c(O)c(OC)cc4c1C(Cc1ccc(O)c(c1)Oc1ccc(cc1)CC3N(C)CC2)N(C)CC4 (configuration not stated)    26.2 µM (inactive)
CN1CCN(CN2C(=O)C3C4C=CC(C3C2=O)C2C3C(=O)N(CN5CCN(C)CC5)C(=O)C3C42)CC1 (configuration not stated)    34.2 µM (inactive)
C=C(CBr)CCCOCc1ccccc1    21.4 µM (inactive)
C=CCn1c(=O)ccn(/C(=C/C(=O)OCC)C(=O)OCC)c1=O    15.3 µM (inactive)
O=C1NCCCC12CCCNC2=O    > 100 µM (inactive)
CCOC(=O)Nn1c(CC#N)nnc1Cc1ccccc1    > 100 µM (inactive)
CO/C(=N\N=C\c1ccc(Cl)cc1)c1ccncc1    > 100 µM (inactive)

INPUT: Tell us which GI50 value is on record for Cc1cc2c(cc1C)[n+]([O-])c(C(=O)N1CCN(c3ccc([N+](=O)[O-])cc3)CC1)c(C)[n+]2[O-]
OUTPUT: 27.6 µM (inactive)

INPUT: Tell me GI50 reported for COc1cc(OC)c(OC)cc1/C=C/c1cc[n+](C)c2ccccc12
OUTPUT: 40 µM (inactive)

INPUT: Item N=C(N)N/N=C/c1c(-c2ccc(Cl)c([N+](=O)[O-])c2)nc2sc(Cl)cn12 : provide GI50
OUTPUT: 1.65 µM (inactive)

INPUT: Using the record for CC12CN(CC[N+](C)(C)C)CC1(C)C1CCC2O1 (configuration not stated) , state its measured GI50.
OUTPUT: > 100 µM (inactive)

INPUT: For the molecule CCCN(CCCCC(NC(C)=O)C(=O)NCc1ccccc1)C(=O)N(CCCl)N=O (configuration not stated) , report GI50.
OUTPUT: > 92.3 µM (inactive)

INPUT: Assign GI50 to the following record: Cc1ccc(N2C(=O)N(c3ccc(C)cc3)C3(SC=NN3C)C2=O)cc1 (configuration not stated)
OUTPUT: > 100 µM (inactive)

INPUT: Return GI50 (reported value) for this molecule: C=C1[C@H](OC(=O)C(C)C)[C@]23CC4(O)[C@@H]5[C@@]6(C)CCC[C@]57C([C@@H]2C[C@@]1(O)[C@H](O)[C@@H]73)N4C6
OUTPUT: > 100 µM (inactive)

INPUT: Return reported GI50. Input molecule: c1nncn1C12C3C4C5C3C1C5C42 (configuration not stated)
OUTPUT: > 100 µM (inactive)

INPUT: Report GI50 for N#Cc1c2c(c(Nc3ccc(F)cc3)n3c1nc1ccccc13)CCCC2
OUTPUT: > 59.3 µM (inactive)
